target: huTfR Apical Domain-Avi-His (human); assay: SPR (Carterra LSA), 2+2 captured
Sequence (chain, as listed by the source limits assumed): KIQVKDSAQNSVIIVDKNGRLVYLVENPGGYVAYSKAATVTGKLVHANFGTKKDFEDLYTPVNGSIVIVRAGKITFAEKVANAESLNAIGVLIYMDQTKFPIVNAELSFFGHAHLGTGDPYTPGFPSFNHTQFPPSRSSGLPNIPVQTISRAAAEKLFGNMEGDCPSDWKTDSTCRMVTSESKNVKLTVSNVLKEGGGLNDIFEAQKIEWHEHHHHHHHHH
ATTRIBUTE MEASURED: pKd
Give bare numbers, as −log10 of the molar value.

INSERT INTO assay_data (binder, value_observed) VALUES
  ('TFR.15.WH8.1 2+2 anti-TfR bispecific antibody (bispecific antibody, part only; not given: isotype IgG backbone and linker, not shown: another chain or arm of the molecule; a dimerising Fc or GST; large carriers; small tags and cut ends) scFv: QVQLVQSGAEVKKPGASVKVSCKASGYTFTSYYMHWVRQAPGQGLEWMGNIYPGSGSSNYAQKFQGRVTMTRDTSTSTVYMELSSLRSEDTAVYYCTRSSYYGNFDTMDNWGQGTTVTVSSGGSEGKSSGSGSESKSTGGSEIVLTQSPATLSLSPGERATLSCRASSSIRYMNWYQQKPGQAPRRLIYDTSNRATGIPARFSGSGSGTDFTLTISSLEPEDFAVYYCHQRSSYPWTFGGGTKVEIK', 7.55);

For every item below, please supply its pKd.
1. TFR.15.WH8.1.26H 2+2 anti-TfR bispecific antibody (bispecific antibody, part only; not given: isotype IgG backbone and linker, not shown: another chain or arm of the molecule; a dimerising Fc or GST; large carriers; small tags and cut ends) scFv: QVQLVQSGAEVKKPGASVKVSCKASGYTFTSYYMHWVRQAPGQGLEWMGNIYPGSGSSNYAQKFQGRVTMTRDTSTSTVYMELSSLRSEDTAVYYCTRSSYHGNFDTMDNWGQGTTVTVSSGGSEGKSSGSGSESKSTGGSEIVLTQSPATLSLSPGERATLSCRASSSIRYMNWYQQKPGQAPRRLIYDTSNRATGIPARFSGSGSGTDFTLTISSLEPEDFAVYYCHQRSSYPWTFGGGTKVEIK
2. TFR.15.WH8.1.42A.L1 2+2 anti-TfR bispecific antibody (bispecific antibody, part only; not given: isotype IgG backbone and linker, not shown: another chain or arm of the molecule; a dimerising Fc or GST; large carriers; small tags and cut ends) scFv: QVQLVQSGAEVKKPGASVKVSCKASGYTFTSYYMHWVRQAPGQGLEWMGNIYPGSGSSNYAQKFQGRVTMTRDTSTSTVYMELSSLRSEDTAVYYCTRSSYYGNFDTMDNWGQGTTVTVSSSPNSASHSGSAPQTSSAPGSQEIVLTQSPATLSLSPGERATLSCRASSSIRAMNWYQQKPGQAPRRLIYDTSNRATGIPARFSGSGSGTDFTLTISSLEPEDFAVYYCHQRSSYPWTFGGGTKVEIK

1. 6.55
2. 6.82
